Molecular target: HLA-A02.01 (human)
Test: pMHC-I complex dissociation at 37 C, 125I-b2m, half-life
Text: Briefly, synthetic genes encoding biotinylated MHC-I heavy and light chains are expressed in E. coli and purified from inclusion bodies using standard methods. […] Stability is defined as the length of time in hours it takes for half of the complexes to dissociate, as measured by scintillation counts.
Binary classification by Stability (T1/2 (h)), with 0.4 h as an inclusive lower bound for criterion met; all other cases are criterion not met.

Data request: Could you tell me if the measured Stability (T1/2 (h)) of YLVIQLQDKF (also called EGFR: SEPT14) reaches 0.4 h or more?
Data returned: criterion not met

Data request: Note, next up: VVPLYGLLL (also called ESR1, D538G)
Data returned: criterion met

Data request: Note, next up: VVPLCDLLL (also called ESR1, Y537C)
Data returned: criterion not met

Data request: Note, next up: ELFPLIFPA (also called C11orf95: RELA)
Data returned: criterion met

Data request: Note, next up: PLYGLLLEM (also called ESR1, D538G)
Data returned: criterion met

Data request: Note, next up: KGPELFPLI (also called C11orf95: RELA)
Data returned: criterion not met

Data request: Note, next up: NVVPLSDLLL (also called ESR1, Y537S)
Data returned: criterion not met

Values compiled from patent US20220282217A1.
